tested system: Human Polymorphonuclear Leukocyte Elastase (Homo sapiens)
Construct: Crude extract of human polymorphonuclear leukocytes (PMN) containing elastase activity; from tissue; host or cells: human polymorphonuclear leukocytes (crude extract)
Sequence (P08246 30-247 limits assumed): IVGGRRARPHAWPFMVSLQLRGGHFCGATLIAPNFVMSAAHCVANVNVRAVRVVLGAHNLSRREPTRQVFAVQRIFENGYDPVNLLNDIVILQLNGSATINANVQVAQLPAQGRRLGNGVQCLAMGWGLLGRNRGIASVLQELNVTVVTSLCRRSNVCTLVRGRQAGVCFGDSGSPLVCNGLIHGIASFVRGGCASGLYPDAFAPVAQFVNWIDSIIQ
run description: Inhibition of human polymorphonuclear leukocyte elastase via hydrolysis of N-t-Boc-alanyl-alanyl-prolylalanine-p-nitroanilide
Assay type: biochemical
condition details: Table III, upper part; crude PMN extract, Boc-AAPAN substrate, pH 7.5; 2 minutes after zero time
metric: IC50
Field: value (include unit after the number)

Form field, IC50 with Human Polymorphonuclear Leukocyte Elastase (Homo sapiens), item COc1ccc(Cn2nnnc2[C@@H]2N3C(=O)[C@@H](NC(=O)C(F)(F)F)C3[S+]([O-])C2(C)C)cc1 (stereo partly drawn) [drawing 31, n=1] : 4.23 µM

Form field, IC50 with Human Polymorphonuclear Leukocyte Elastase (Homo sapiens), item COc1ccc(Cn2nnnc2[C@@H]2N3C(=O)[C@@H](NC(=O)C(F)(F)F)C3SC2(C)C)cc1 (stereo partly drawn) [drawing 31, n=0] : 4.38 µM

Form field, IC50 with Human Polymorphonuclear Leukocyte Elastase (Homo sapiens), item COc1ccc(Cn2nnnc2[C@@H]2N3C(=O)[C@@H](NC(=O)C(F)(F)F)C3S(=O)(=O)C2(C)C)cc1 (stereo partly drawn) [drawing 31, n=2] : 1.02 µM
